Origin of measurements: ChEMBL document CHEMBL3988442

- System under test: Sialic acid-binding Ig-like lectin 9 (Homo sapiens)
- Test method notes: Hs-Siglec9 ALPHAscreen SOP 20170721
- Set-up: scale not given: direction of the effect not stated beside the values
- Condition set: 10 µM

| Molecule | System under test | Percent Effect [%] |
| --- | --- | --- |
| CN(C)C(=O)CN1C[C@@H]2CC[C@H](C1)N(C(=O)Cc1ccccc1Cl)C2 | Sialic acid-binding Ig-like lectin 9 (Homo sapiens) | -0.0171 |
| c1cncc(N2CCOCC3(CCCN(Cc4cccs4)C3)C2)c1 (stereo unspecified) | Sialic acid-binding Ig-like lectin 9 (Homo sapiens) | -1.9 |
| CN(CCc1ccc(F)cc1)Cc1nc2c(cnn2C)c(=O)[nH]1 | Sialic acid-binding Ig-like lectin 9 (Homo sapiens) | 1.02 |
| CCCN1C(=O)CC2(CCCNC2)C1=O (stereo unspecified) | Sialic acid-binding Ig-like lectin 9 (Homo sapiens) | -2.44 |
| O=C1CC2(CCN(Cc3ccccn3)C2)CN1c1cncnc1 (stereo unspecified) | Sialic acid-binding Ig-like lectin 9 (Homo sapiens) | -3.03 |
| Cc1cccc(CN2C[C@H](NS(C)(=O)=O)[C@@H]3OCCC[C@@H]32)n1 | Sialic acid-binding Ig-like lectin 9 (Homo sapiens) | 5.95 |
| O=C(Cc1ccccc1)N1CCN(Cc2noc(C3CC3)n2)CC1 | Sialic acid-binding Ig-like lectin 9 (Homo sapiens) | 1.57 |
| c1cncc(OC[C@@H]2CCC[C@@]23CNCCO3)c1 | Sialic acid-binding Ig-like lectin 9 (Homo sapiens) | -7.32 |
| COc1cccc([C@@H]2CCN(Cc3ccc4ccccc4n3)C[C@H]2O)c1 | Sialic acid-binding Ig-like lectin 9 (Homo sapiens) | 14.7 |
| O=C1OCCC1N1CCN(C(=O)Cc2c[nH]c3ccccc23)CC1 (stereo unspecified) | Sialic acid-binding Ig-like lectin 9 (Homo sapiens) | -1.41 |
| O=C(c1cnn2c1OCCC2)N1CCC2(CC1)OCCO2 | Sialic acid-binding Ig-like lectin 9 (Homo sapiens) | 6.26 |
